# Protocol text: Kinetic solubility of PP-001 salts in FaSSIF (HPLC)
# Format: physicochemical
# Conditions used: 4 mL FaSSIF, 25° C., target 2 mg/mL, 2 h
Entries annotated with measured Solubility at different time points, 2 h
Dear colleague, please return just the value in µg/mL, with no unit written.

> print(dat)
                                   compound  value.observed
1              NCCCC[C@H](N)C(=O)O [Lysine]            2020
2  CNC[C@H](O)[C@@H](O)[C@H](O)[C@H](O)CO [Meglumine]            2000
3                          [Mg] [Magnesium]            1440
4                            [Ca] [Calcium]             710

Next up:
# get_value(readout='Solubility at different time points, 2 h', item= [K+] [Potassium] )
2190
